test: Solubility of camptothecin in various solvents; format: physicochemical; details: milli-q water; read-out: Solubility, Concentration
reported.property: solubility (µg/mL)
Please give a number only; it is taken to be in µg/mL.

Exercise: I'd like to know its solubility. The molecule in question is CC[C@@]1(O)C(=O)OCc2c1cc1n(c2=O)Cc2cc3ccccc3nc2-1 [Camptothecin, camptothecin]
Solution: 0.2

###

assay: Solubility of camptothecin in various solvents; assay type: physicochemical; settings: peg 300, organic solvent or mixture, PEG 300; read-out: Solubility, Concentration
reported.property: solubility

Exercise: I'd like to know its solubility. The compound in question is CC[C@@]1(O)C(=O)OCc2c1cc1n(c2=O)Cc2cc3ccccc3nc2-1
Solution: 706 µg/mL

###

test: Solubility of camptothecin in various solvents; format: physicochemical; conditions: benzyl alcohol, organic solvent or mixture, Benzyl alcohol; read-out: Solubility, Concentration
reported.property: solubility (µg/mL)
Please give a number only; it is taken to be in µg/mL.

Exercise: I'd like to know its solubility. The molecule in question is CC[C@@]1(O)C(=O)OCc2c1cc1n(c2=O)Cc2cc3ccccc3nc2-1 [Camptothecin, camptothecin]
Solution: 1670

###

assay: Solubility of camptothecin in various solvents; assay type: physicochemical; details: ethanol, organic solvent or mixture, Ethanol; read-out: Solubility, Concentration
reported.property: solubility (µg/mL)
Please give a number only; it is taken to be in µg/mL.

Exercise: I'd like to know its solubility. The compound in question is CC[C@@]1(O)C(=O)OCc2c1cc1n(c2=O)Cc2cc3ccccc3nc2-1
Solution: 51
